Assay: Maximum concentration in male rats after iv administration of 20 mg/kg
Assay type: ADME, organism-based
Design: dose 20 mg/kg, route intravenous
Settings: rat, in vivo
metric: Cmax (µg/mL)

Record excerpt, results attached:
CO/N=C(\C(=O)NC1CN2CC(S(C)(=O)=O)=C(C(=O)O)N2C1=O)c1csc(N)n1 (centres undefined) :: 120
C=CCCO/N=C(/C(=O)N[C@H]1CN2CC(S(C)(=O)=O)=C(C(=O)O)N2C1=O)c1csc(N)n1 :: 70.3

1 = CCCS(=O)(=O)C1=C(C(=O)O)N2C(=O)[C@@H](NC(=O)/C(=N/OCCCl)c3csc(N)n3)CN2C1
2 = CO/N=C(\C(=O)N[C@H]1CN2CC(C#N)=C(C(=O)O)N2C1=O)c1csc(N)n1
-- ask Looking at recorded values for Cmax, does 1 or 2 come in lower? Pick one and reply with its label.
-- reply 1
(1: 74.3 µg/mL, 2: 120 µg/mL)
